The origin of these recorded values is patent US20220332795A1.

Target: T1, recombinant biotinylated human CD71 extracellular domain (human, UniProt P02786 89-760, biotinylated)
T1 construct: extracellular domain; also called hCD71; huCD71 ECD
T1 sequence (P02786 other isoform, or with tags, fused parts or gaps): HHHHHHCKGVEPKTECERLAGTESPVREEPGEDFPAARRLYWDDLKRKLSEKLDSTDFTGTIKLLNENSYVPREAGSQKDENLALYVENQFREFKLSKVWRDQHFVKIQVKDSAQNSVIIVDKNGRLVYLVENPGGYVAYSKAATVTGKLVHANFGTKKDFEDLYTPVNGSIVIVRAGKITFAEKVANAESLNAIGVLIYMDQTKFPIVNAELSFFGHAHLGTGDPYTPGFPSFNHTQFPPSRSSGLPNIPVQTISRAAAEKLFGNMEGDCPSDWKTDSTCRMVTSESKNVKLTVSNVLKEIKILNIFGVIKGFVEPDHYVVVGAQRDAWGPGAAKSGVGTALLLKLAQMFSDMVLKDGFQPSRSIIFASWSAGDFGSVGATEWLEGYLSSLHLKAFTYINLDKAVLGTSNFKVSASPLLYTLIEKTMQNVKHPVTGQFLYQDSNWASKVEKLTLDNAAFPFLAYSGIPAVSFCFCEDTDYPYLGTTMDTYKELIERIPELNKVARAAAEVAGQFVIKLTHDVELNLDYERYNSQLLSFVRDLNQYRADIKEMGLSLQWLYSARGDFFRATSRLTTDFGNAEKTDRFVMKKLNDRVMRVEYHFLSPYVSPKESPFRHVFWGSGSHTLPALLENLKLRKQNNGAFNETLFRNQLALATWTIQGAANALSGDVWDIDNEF
Assay: solution ELISA
OUTCOME MEASURE: hCD71, RLU (RLU)
Field: numeric (RLU). Do not append units.

SEQ ID NO 121 (designed binder, FN3 domain) MLPAPKNLVVSRVTEDSARLSWTAPDAAFDSFFIGYLEPQPPGEAIALWVPGSERSYDLTGLKPGTEYNVTIQGVKGGFPSMPLSAIFTT: 4.77e+06
SEQ ID NO 141 (designed binder, FN3 domain) MLPAPKNLVVSRVTEDSARLSWTAPDAAFDSFYIAYAEPRPDGEAIFLGVPGSERSYDLTGLKPGTEYSVLIHGVKGGLLSSPLIAFFTT: 965000
SEQ ID NO 139 (designed binder, FN3 domain) MLPAPKNLVVSRVTEDSARLSWTAPDAAFDSFFIGYLEPQPPGEAIQLGVPGSERSYDLTGLKPGTEYNVTIQGVKGGFPSHPLNANFTT: 1.13e+06
SEQ ID NO 162 (designed binder, FN3 domain) MLPAPKNLVVSRVTEDSARLSWTAPDAAFDSFYIAYAEPRPDGEAIKLEVPGSERSYDLTGLKPGTEYSVLIHGVKGGLLSSPLAIFTT: 638000
SEQ ID NO 142 (designed binder, FN3 domain) MLPAPKNLVVSRVTEDSARLSWTAPDAAFDSFFIGYLEPQPPGEAIGLQVPGSERSYDLTGLKPGTEYNVTIQGVKGGFPSHPLKAQFTT: 2.97e+06
SEQ ID NO 170 (designed binder, FN3 domain) MLPAPKNLVVSRVTEDSARLSWTAPDAAFDSFYIAYAEPRPDGEAIHLLVPGSERSYDLTGLKPGTEYSVLIHGVKGGLLSSPLLAHFTT: 814000
SEQ ID NO 127 (designed binder, FN3 domain) MLPAPKNLVVSRVTEDSARLSWTAPDAAFDSFYIAYAEPRPDGEAIFLGVPGSERSYDLTGLKPGTEYSVLIHGVKGGLLSSPLSAIFTT: 1.41e+06
SEQ ID NO 157 (designed binder, FN3 domain) MLPAPKNLVVSRVTEDSARLSWTAPDAAFDSFYIAYAEPRPDGEAILLHVPGSERSYDLTGLKPGTEYSVLIHGVKGGLLSSPLSAISTT: 3.61e+06

Looking up SEQ ID NO 105 (designed binder, FN3 domain) MLPAPKNLVVSRVTEDSARLSWTAPDAAFDSFYIAYAEPRPDGEAIFLVVPGSERSYDLTGLKPGTEYSVLIHGVKGGLLSSPLHANFTT , I found its hCD71, RLU recorded as 2.43e+06

Looking up SEQ ID NO 128 (designed binder, FN3 domain) MLPAPKNLVVSRVTEDSARLSWTAPDAAFDSFYIAYAEPRPDGEAIVLRVPGSERSYDLTGLKPGTEYSVLIHGVKGGLLSSPLIASFTT , I found its hCD71, RLU recorded as 4.31e+06
